biological target: SYT1C2A (Arabidopsis thaliana, UniProt Q9SKR2); construct: gene SYT1; C2A domain, residues K253-E397; pGEX6P1, GST tag cleaved with PreScission protease; expressed in E. coli Rosetta 2 (DE3) pLysS; experiment: thermal shift, label-free nanoDSF (Tycho NT.[…]); format: binding; conditions: 58 μM ligand, 5.8 μM protein, 20 μM EGTA, Tris-HCl pH 8.0; absolute inflexion temperature, unbound control 57.4 ± 0.5; polybasic site
Sequence (Q9SKR2 253-397): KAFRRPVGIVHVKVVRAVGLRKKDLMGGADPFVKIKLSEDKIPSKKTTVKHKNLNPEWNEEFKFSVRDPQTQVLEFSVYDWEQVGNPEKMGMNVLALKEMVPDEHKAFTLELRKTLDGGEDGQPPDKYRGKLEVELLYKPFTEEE
Outcome measure: SYT1C2A (°C)
Answer with a number only, understood to be in °C.

Reference set, count: 4
- Compound: "O=P(O)(O)O[C@H]1[C@H](OP(=O)(O)O)[C@@H](OP(=O)(O)O)[C@@H](O)[C@@H](O)[C@@H]1OP(=O)(O)O [IP(3,4,5,6), inositol 3,4,5,6-tetraphosphate]"
  Unit abbrev: "°C"
  Test result: 65.2
- Compound: "O=P(O)(O)O[C@H]1[C@H](O)[C@@H](O)[C@H](OP(=O)(O)O)[C@@H](O)[C@H]1O [IP2, inositol 1,4-biphosphate]"
  Unit abbrev: "°C"
  Test result: 59.4
- Compound: "O=P(O)(O)O[C@H]1[C@H](O)[C@@H](O)[C@H](OP(=O)(O)O)[C@@H](OP(=O)(O)O)[C@H]1O [IP(1,3,4), inositol 1,3,4-trisphosphate]"
  Unit abbrev: "°C"
  Test result: 64.2
- Compound: "O=P(O)(O)O[C@@H]1[C@@H](OP(=O)(O)O)[C@H](OP(=O)(O)O)[C@@H](O)[C@@H](O)[C@H]1OP(=O)(O)O [IP(1,4,5,6), inositol 1,4,5,6-tetraphosphate]"
  Unit abbrev: "°C"
  Test result: 62.6

In plain terms, O=P(O)(O)O[C@@H]1[C@H](O)[C@H](O)[C@@H](OP(=O)(O)O)[C@H](OP(=O)(O)O)[C@H]1O [IP3, inositol 1,4,5-trisphosphate] has a documented SYT1C2A of 62.60
